Target: human glucagon receptor (human, UniProt P47871 26-477)
Sequence (P47871 26-477): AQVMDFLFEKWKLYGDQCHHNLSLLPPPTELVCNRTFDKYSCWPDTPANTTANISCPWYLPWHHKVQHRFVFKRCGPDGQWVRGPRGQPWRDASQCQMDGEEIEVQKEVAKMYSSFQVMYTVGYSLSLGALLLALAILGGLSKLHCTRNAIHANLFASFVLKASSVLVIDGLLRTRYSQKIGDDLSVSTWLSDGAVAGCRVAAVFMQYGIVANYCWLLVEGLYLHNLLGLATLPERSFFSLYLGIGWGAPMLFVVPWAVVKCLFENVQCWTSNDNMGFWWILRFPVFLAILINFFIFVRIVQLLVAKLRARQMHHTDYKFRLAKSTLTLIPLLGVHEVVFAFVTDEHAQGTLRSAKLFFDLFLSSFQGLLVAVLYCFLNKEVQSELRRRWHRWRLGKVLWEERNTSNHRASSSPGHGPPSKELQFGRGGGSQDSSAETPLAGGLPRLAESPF
Experiment: cell-based or functional assay
measurement_name: EC50 hGlucagon-R (nM)
The reply should be a number in nM, with the unit left off.

Problem: Need EC50 hGlucagon-R of HXQGTFTSDLSKQKDEEAARLFIEWLXKXGPSSGAPPPS (D-Ser at 2; Lys 14 side chain K(γE-x70) = (S)-4-Carboxy-4-octadecanoylamino-butyryl-; Aib at 27; D-Ala at 29; C-terminal amide) [SEQ ID NO: 25] , thanks.
Result: 0.0432

Problem: Another binder to look at: HXQGTFTSDLSKQKDEEAARLFIEWLXKXGPSSGAPPPS (D-Ser at 2; Lys 14 side chain K(γE-γE-x53) = (S)-4-Carboxy-4-((S)-4-carboxy-4-hexadecanoylamino-butyrylamino)-butyryl-; Aib at 27; D-Ala at 29; C-terminal amide) [SEQ ID NO: 24]
Result: 0.0765

Problem: Another binder to look at: HXQGTFTSDLSKQKDEEAARLFIEWLXAGGPSSGAPPPS (D-Ser at 2; Lys 14 side chain K(γE-x53) = (S)-4-Carboxy-4-hexadecanoylamino-butyryl-; Aib at 27; C-terminal amide) [SEQ ID NO: 14]
Result: 0.0247

Problem: Another binder to look at: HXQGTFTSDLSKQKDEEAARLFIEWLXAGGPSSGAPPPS (D-Ser at 2; Lys 14 side chain K(AEEAc-AEEAc-AEEAc-x70) = [2-(2-{2-[2-(2-{2-[2-(2-Octadecanoylamino-ethoxy)-ethoxy]-acetylamino}-ethoxy)-ethoxy]-acetylamino}-ethoxy)-ethoxy]-acetyl-; Aib at 27; C-terminal amide) [SEQ ID NO: 22]
Result: 0.0064
